Listed here are compounds together with their documented concentration at 24 h.
measurement-protocol: Trough plasma concentration in rat at 0.5 mg/kg, po after 24 hrs
Type: ADME, organism-based
Set-up: dose 0.5 mg/kg, route oral
run-conditions: read-out: Cmin
Numbers only; they are read as nM.

| smiles-entry | quantity | unit-abbrev | value-reported |
| --- | --- | --- | --- |
| CC(C)(C)CN1CCC2(CC1)CN(c1ccccc1Nc1nnc(-c3ccc(C(F)(F)F)cc3)s1)c1c(O)ccc(C(F)(F)F)c12 | concentration at 24 h | nM | 12 |

Prompt: Please list concentration at 24 h recorded for the compound CC(C)(C)CN1CCC2(CC1)CN(c1ccccc1Nc1nnc(-c3ccc(OC(F)(F)F)cc3)s1)c1c(O)ccc(Cl)c12
Response: 30

Prompt: Answer with reported concentration at 24 h of CC(C)(C)CN1CCC2(CC1)CN(c1ccccc1Nc1nnc(-c3ccc(C(C)(C)C)cc3)s1)c1c(O)ccc(C(F)(F)F)c12
Response: 3.6

Prompt: Input CC(C)(C)CN1CCC2(CC1)CN(c1ccccc1NC(=O)Nc1nc3ccc(Cl)nc3s1)c1c(O)ccc(Cl)c12 , output reported concentration at 24 h.
Response: 4.1

---

measurement-protocol: Trough plasma concentration in rat at 0.5 mg/kg, iv after 24 hrs
Format: ADME, organism-based
Design: dose 0.5 mg/kg, route intravenous
run-conditions: read-out: Cmin
quantity: concentration at 24 h (nM)
Please state the figure in nM; there is no need to write the unit.

Some entries whose results are on file:
| smiles-entry | concentration at 24 h / nM |
| --- | --- |
| CC(C)(C)CN1CCC2(CC1)CN(c1ccccc1Nc1nnc(-c3ccc(C(F)(F)F)cc3)s1)c1c(O)ccc(C(F)(F)F)c12 | 46 |
| CC(C)(C)CN1CCC2(CC1)CN(c1ccccc1Nc1nnc(-c3ccc(C(C)(C)C)cc3)s1)c1c(O)ccc(C(F)(F)F)c12 | 54 |
| CC(C)(C)CN1CCC2(CC1)CN(c1ccccc1NC(=O)Nc1nc3ccc(Cl)nc3s1)c1c(O)ccc(Cl)c12 | 10 |

Lab note: next compound to report on.
Prompt: Give reported concentration at 24 h value for CC(C)(C)CN1CCC2(CC1)CN(c1ccccc1Nc1nnc(-c3ccc(OC(F)(F)F)cc3)s1)c1c(O)ccc(Cl)c12
Response: 95

---

measurement-protocol: Metabolic stability in rat liver microsomes assessed as compound remaining after 10 mins
Type: ADME
run-conditions: read-out: Stability
quantity: remaining at 10 min (%)
Give just the number in %; leave the unit off.

| smiles-entry | unit-abbrev | remaining at 10 min |
| --- | --- | --- |
| CC(C)(C)CN1CCC2(CC1)CN(c1ccccc1NC(=O)Nc1nc3ccc(Cl)nc3s1)c1c(O)ccc(Cl)c12 | % | 86 |

Prompt: Fill in remaining at 10 min for record CC(C)(C)CN1CCC2(CC1)CN(c1ccccc1Nc1nnc(-c3cnccn3)s1)c1c(O)ccc(Cl)c12
Response: 37

Prompt: Give the reported value of remaining at 10 min for this record: CC(C)(C)CN1CCC2(CC1)CN(c1ccccc1Nc1nnc(-c3ccc(OC(F)(F)F)cc3)s1)c1c(O)ccc(Cl)c12
Response: 94

Prompt: Consider the compound Cc1cc(-c2nnc(Nc3ccccc3N3CC4(CCN(CC(C)(C)C)CC4)c4c(Cl)ccc(O)c43)s2)n(C)n1 . State its measured remaining at 10 min.
Response: 75

Prompt: In one line, give reported remaining at 10 min of the entry CC(C)(C)CN1CCC2(CC1)CN(c1ccccc1Nc1nnc(-c3ccc(C(F)(F)F)cc3)s1)c1c(O)ccc(C(F)(F)F)c12 .
Response: 87

Prompt: Please give measured remaining at 10 min of the following entry: CC(C)(C)CN1CCC2(CC1)CN(c1ccccc1Nc1nnc(-c3ccc(C(C)(C)C)cc3)s1)c1c(O)ccc(C(F)(F)F)c12
Response: 84

---

Listed below: clearance values for each entry.
measurement-protocol: Clearance in rat at 0.5 mg/kg, iv and 0.5 mg/kg, po
Type: ADME, organism-based
run-conditions: in vivo
Write the value in mL/min/kg as a bare number.

For orientation, consider the following solved cases.
| smiles-entry | clearance, mL/min/kg |
| --- | --- |
| CC(C)(C)CN1CCC2(CC1)CN(c1ccccc1NC(=O)Nc1nc3ccc(Cl)nc3s1)c1c(O)ccc(Cl)c12 | 10 |
| CC(C)(C)CN1CCC2(CC1)CN(c1ccccc1Nc1nnc(-c3ccc(OC(F)(F)F)cc3)s1)c1c(O)ccc(Cl)c12 | 2.1 |
| CC(C)(C)CN1CCC2(CC1)CN(c1ccccc1Nc1nnc(-c3ccc(C(C)(C)C)cc3)s1)c1c(O)ccc(C(F)(F)F)c12 | 1.8 |

Let us examine a further case.
Prompt: Identify measured clearance associated with CC(C)(C)CN1CCC2(CC1)CN(c1ccccc1Nc1nnc(-c3ccc(C(F)(F)F)cc3)s1)c1c(O)ccc(C(F)(F)F)c12
Response: 4

---

system-name: P2Y purinoceptor 1 (Homo sapiens)
measurement-protocol: Inhibition of P2Y1 receptor in human washed platelets assessed as decrease in 2-methylthio-ADP-induced calcium signal transduction pathway activation by FLIPR assay
quantity: IC50 (nM)
Give just the number in nM; leave the unit off.

| smiles-entry | IC50 / nM |
| --- | --- |
| CC(C)(C)CN1CCC2(CC1)CN(c1ccccc1Nc1ncc(-c3ccccc3)s1)c1c(O)ccc(Cl)c12 | 2.3 |

Prompt: Supply recorded IC50 for CC(C)(C)CN1CCC2(CC1)CN(c1ccccc1Nc1nnc(-c3ccccc3)s1)c1c(O)ccc(C(F)(F)F)c12 here.
Response: 0.19

Prompt: Give the reported IC50 for this molecule. CC(C)(C)CN1CCC2(CC1)CN(c1ccccc1Nc1nnc(-c3ccc(Cl)cc3)s1)c1c(O)ccc(Cl)c12
Response: 1.6

Prompt: Determine its reported IC50: CC(C)(C)CN1CCC2(CC1)CN(c1ccccc1Nc1nnc(-c3cccc(Cl)c3)s1)c1c(O)ccc(Cl)c12
Response: 3.6

---

system-name: P2Y purinoceptor 1 (Homo sapiens, UniProt P47900)
Sequence (P47900 whole entry): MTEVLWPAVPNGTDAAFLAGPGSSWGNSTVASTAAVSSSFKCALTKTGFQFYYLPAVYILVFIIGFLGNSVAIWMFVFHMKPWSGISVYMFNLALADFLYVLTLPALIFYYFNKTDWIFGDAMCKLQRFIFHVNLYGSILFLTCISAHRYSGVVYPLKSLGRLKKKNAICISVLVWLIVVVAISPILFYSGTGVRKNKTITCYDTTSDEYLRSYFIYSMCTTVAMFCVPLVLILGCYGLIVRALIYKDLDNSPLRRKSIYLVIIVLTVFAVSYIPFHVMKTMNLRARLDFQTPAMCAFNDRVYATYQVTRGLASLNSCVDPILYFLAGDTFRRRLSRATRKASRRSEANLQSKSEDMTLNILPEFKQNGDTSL
quantity: Ki (nM)
Reply numerically in nM, unit not repeated.

Solved entries:
| smiles-entry | Ki, nM |
| --- | --- |
| CC(C)(C)CN1CCC2(CC1)CN(c1ccccc1NC(=O)Nc1nc3ccc(Cl)nc3s1)c1c(O)ccc(Cl)c12 | 8 |
| CC(C)(C)CN1CCC2(CC1)CN(c1ccccc1Nc1nnc(-c3ccccc3)s1)c1c(O)ccc(C(F)(F)F)c12 | 9.6 |
| Cc1ccc(-c2ccc(Nc3ccccc3N3CC4(CCN(CC(C)(C)C)CC4)c4c(Cl)ccc(O)c43)nc2)cc1 | 343 |

Moving on to another compound below.
Prompt: Indicate the recorded Ki value for this compound: CC(C)(C)CN1CCC2(CC1)CN(c1ccccc1Nc1nc(-c3ccccc3)cs1)c1c(O)ccc(Cl)c12
Response: 20

---

system-name: P2Y purinoceptor 1 (Homo sapiens)
measurement-protocol: Inhibition of P2Y1 receptor in human washed platelets assessed as decrease in 2-methylthio-ADP-induced calcium signal transduction pathway activation by FLIPR assay
The label 1 (yes) is reserved for IC50 strictly under 3 nM; 0 (no) covers values equal to or above it.

# count of solved cases: 3
| smiles-entry | class-label |
| --- | --- |
| CC(C)(C)CN1CCC2(CC1)CN(c1ccccc1Nc1nnc(-c3ccc(OC(F)(F)F)cc3)s1)c1c(O)ccc(F)c12 | 1 (yes) |
| CC(C)(C)CN1CCC2(CC1)CN(c1ccccc1Nc1nnc(-c3ccccc3Cl)s1)c1c(O)ccc(Cl)c12 | 0 (no) |
| CC(C)(C)CN1CCC2(CC1)CN(c1ccccc1Nc1nc(-c3ccccc3)cs1)c1c(O)ccc(Cl)c12 | 0 (no) |

Prompt: Item CC(C)(C)CN1CCC2(CC1)CN(c1ccccc1Nc1nnc(-c3ccc(C(C)(C)C)cc3)s1)c1c(O)ccc(C#N)c12 : IC50 beneath 3 nM, strictly?
Response: 1 (yes)

Prompt: Report whether reported IC50 is lower than 3 nM (strictly) for COC(=O)c1ccc(O)c2c1C1(CCN(CC(C)(C)C)CC1)CN2c1ccccc1Nc1nnc(-c2ccc(C(C)(C)C)cc2)s1
Response: 1 (yes)

Prompt: Hello, I'm reviewing records and need to know if IC50 of CC(C)(C)CN1CCC2(CC1)CN(c1ccccc1Nc1nc(-c3ccccc3)ns1)c1c(O)ccc(Cl)c12 is below 3 nM. Could you check?
Response: 0 (no)

Prompt: Hi there! Is IC50 for CC(C)(C)CN1CCC2(CC1)CN(c1ccccc1Nc1nnc(-c3ccc(C(C)(C)C)cc3)s1)c1c(O)ccc(C(F)(F)F)c12 below 3 nM, do you know?
Response: 1 (yes)

Prompt: Record CC(C)(C)CN1CCC2(CC1)CN(c1ccccc1Nc1nnc(-c3cnccn3)s1)c1c(O)ccc(Cl)c12 : is its IC50 strictly below 3 nM?
Response: 1 (yes)

Origin of measurements: ChEMBL document CHEMBL3259700
